The values you see were collected from ChEMBL document CHEMBL3612017.

experimental.system: Adenosine receptor A2a (Homo sapiens) (UniProt P29274)
Sequence (P29274 whole entry): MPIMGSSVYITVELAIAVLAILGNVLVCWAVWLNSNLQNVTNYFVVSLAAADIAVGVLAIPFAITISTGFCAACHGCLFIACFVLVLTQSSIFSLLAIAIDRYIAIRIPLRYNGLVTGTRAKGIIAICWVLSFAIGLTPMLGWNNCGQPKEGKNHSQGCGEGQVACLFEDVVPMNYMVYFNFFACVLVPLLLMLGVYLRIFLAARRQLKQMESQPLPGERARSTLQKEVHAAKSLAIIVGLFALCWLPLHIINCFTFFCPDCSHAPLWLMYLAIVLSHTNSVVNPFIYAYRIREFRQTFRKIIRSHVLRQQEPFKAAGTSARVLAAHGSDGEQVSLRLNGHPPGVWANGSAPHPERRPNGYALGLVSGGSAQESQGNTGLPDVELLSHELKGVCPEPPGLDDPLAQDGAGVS
protocol.summary: Displacement of [3H]2-[p-(2-carboxyethyl)phenyl-ethylamino]-5'-Nethylcarboxamidoadenosine from human adenosine A2A receptor expressed in HEK293 cell membranes at 10 uM
measurement.type: inhibition (%)
Answers are plain numbers, in %.

Fill in the recorded inhibition for this compound, with Adenosine receptor A2a (Homo sapiens) (UniProt P29274) as test system: "CCCNc1cc(-n2cc(-c3ccc(Cl)s3)nn2)nc2c1ncn2[C@H]1[C@H](O)[C@H](O)[C@]2(C(=O)NC)C[C@H]12"
4

What do you have for "CCCCNc1nc(C#Cc2ccc(Cl)s2)nc2c1ncn2[C@H]1[C@H](O)[C@H](O)[C@]2(C(=O)NC)C[C@H]12" ?
0

What do you have for "CNC(=O)[C@@]12C[C@@H]1[C@@H](n1cnc3c(NC4CCC4)nc(C#Cc4ccc(Cl)s4)nc31)[C@H](O)[C@@H]2O" ?
34

Turning now to a further record.
Fill in the recorded inhibition for this compound, with Adenosine receptor A2a (Homo sapiens) (UniProt P29274) as test system: "CNC(=O)[C@@]12C[C@@H]1[C@@H](n1cnc3c(NC4CC4)nc(C#Cc4ccc(Cl)s4)nc31)[C@H](O)[C@@H]2O"
44
